# TEST NAME: DPPH radical scavenging assay
# Assay type: biochemical
# APPLIED CONDITIONS: conc. 100 (µg/mL)
# DPPH % Inhibition (mean ± SEM) per record follows

{"MOLECULE": "Cc1cc(C(C)(C)C)c(O)c(C(C)(C)C)c1 [BHT, butylated hydroxytoluene, reference compound]", "DPPH % Inhibition (mean ± SEM)": "40.03 ± 0.39%"}
{"MOLECULE": "COc1ccc(/C=N/Nc2ncnc3c2c(-c2ccccc2)cn3-c2cccc(Cl)c2)cc1", "DPPH % Inhibition (mean ± SEM)": "40.63 ± 2.13%"}
{"MOLECULE": "S=c1[nH]nc2c3c(-c4ccccc4)cn(-c4ccc(Cl)cc4)c3ncn12", "DPPH % Inhibition (mean ± SEM)": "37.97 ± 0.71%"}

Task item: Would you mind telling me what DPPH % Inhibition (mean ± SEM) value was observed for `Clc1cccc(-n2cc(-c3ccccc3)c3c2ncn2cnnc32)c1` ?
Reply: 39.56 ± 0.88%

----------
# melting point per record follows

Here's what some known entries look like.
{"COMPOUND": "NNc1ncnc2c1c(-c1ccccc1)cn2-c1cccc(Cl)c1 [2a]", "melting point": "204 to 206 °C"}
{"COMPOUND": "Clc1ccc(/C=N/Nc2ncnc3c2c(-c2ccccc2)cn3-c2cccc(Cl)c2)cc1 [8c]", "melting point": "247 to 249 °C"}
{"COMPOUND": "Clc1ccc(-n2cc(-c3ccccc3)c3c2ncn2cnnc32)cc1 [3b]", "melting point": "190 to 192 °C"}
{"COMPOUND": "Clc1ccc(/C=N/Nc2ncnc3c2c(-c2ccccc2)cn3-c2ccc(Cl)cc2)cc1 [8d]", "melting point": "187 to 189 °C"}
{"COMPOUND": "Cc1cc(C)n(-c2ncnc3c2c(-c2ccccc2)cn3-c2cccc(Cl)c2)n1 [7a]", "melting point": "180 to 182 °C"}
{"COMPOUND": "Cc1nnc2c3c(-c4ccccc4)cn(-c4ccc(Cl)cc4)c3ncn12 [5b]", "melting point": "201 to 203 °C"}

Task item: Would you mind telling me what melting point value was observed for NNc1ncnc2c1c(-c1ccccc1)cn2-c1ccc(Cl)cc1 [2b] ?
Reply: 217 to 219 °C

Task item: Would you mind telling me what melting point value was observed for Clc1ccc(-n2cc(-c3ccccc3)c3c(N/N=C/c4ccccc4)ncnc32)cc1 [8b] ?
Reply: 172 to 174 °C

Task item: Would you mind telling me what melting point value was observed for Cc1cc(C)n(-c2ncnc3c2c(-c2ccccc2)cn3-c2ccc(Cl)cc2)n1 [7b] ?
Reply: 199 to 201 °C

----------
# DPPH % Inhibition (mean ± SEM) per record follows
# TEST NAME: DPPH radical scavenging assay
# Assay type: biochemical
# APPLIED CONDITIONS: conc. 400 (µg/mL)
Numeric answer only, unit % assumed.

{"COMPOUND": "Clc1cccc(-n2cc(-c3ccccc3)c3c2ncn2cnnc32)c1 [3a]", "MEASURE NAME": "DPPH % Inhibition (mean ± SEM)", "NUMBER": 62.51}
{"COMPOUND": "COc1ccc(/C=N/Nc2ncnc3c2c(-c2ccccc2)cn3-c2cccc(Cl)c2)cc1 [8e]", "MEASURE NAME": "DPPH % Inhibition (mean ± SEM)", "NUMBER": 85.22}
{"COMPOUND": "S=c1[nH]nc2c3c(-c4ccccc4)cn(-c4ccc(Cl)cc4)c3ncn12 [4b]", "MEASURE NAME": "DPPH % Inhibition (mean ± SEM)", "NUMBER": 79.55}

From here, focus on the item given below.
Task item: Would you mind telling me what DPPH % Inhibition (mean ± SEM) value was observed for Cc1cc(C(C)(C)C)c(O)c(C(C)(C)C)c1 [BHT, butylated hydroxytoluene, reference compound] ?
Reply: 90.07
